system: 653999-131-R-J2-PDC complex spheroids, growth % test/control; assay: Anticancer human tumor 653999-131-R-J2-PDC patient-derived lung adenocarcinoma cell line growth inhibition [AhR]; conditions: second compound 0.1 µM; first compound 0.1 µM; active compounds read low;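 note: spheroids exposed to agents for seven days; 100% = DMSO vehicle control viability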
Reported viability, T/C by item:
The response must be a number in % with no trailing unit.

// solved cases for viability, T/C follow
Measured viability, T/C, O=C(c1cc(Cc2n[nH]c(=O)c3ccccc23)ccc1F)N1CCN(C(=O)C2CC2)CC1 + CC(CO)NC(=O)c1cc(-c2ccc(Cl)cc2)nn(-c2cnn(C)c2)c1=O : 89.5

Note to self: viability, T/C recorded for Cn1ncnc1C1c2n[nH]c(=O)c3cc(F)cc(c23)NC1c1ccc(F)cc1 (stereo not drawn) + Cc1cncc(-c2nc(NCCc3c[nH]c4ccccc34)c3ncn(C(C)C)c3n2)c1 was 85.6

For reference, reported viability, T/C for Nc1ncn(C2CC(O)C(CO)O2)c(=O)n1 (stereo not drawn) + Cc1cncc(-c2nc(NCCc3c[nH]c4ccccc34)c3ncn(C(C)C)c3n2)c1 stands at 86.5

O=C(C=Cc1cccc(S(=O)(=O)Nc2ccccc2)c1)NO + Cc1cncc(-c2nc(NCCc3c[nH]c4ccccc34)c3ncn(C(C)C)c3n2)c1 has a reported viability, T/C of 96.3

Reported viability, T/C of CC[C@@]1(O)C(=O)OCc2c1cc1n(c2=O)Cc2cc3c(CN(C)C)c(O)ccc3nc2-1 + Cc1cncc(-c2nc(NCCc3c[nH]c4ccccc34)c3ncn(C(C)C)c3n2)c1 : 40.4

Others:
For O=C(C=Cc1cccc(S(=O)(=O)Nc2ccccc2)c1)NO + CC(CO)NC(=O)c1cc(-c2ccc(Cl)cc2)nn(-c2cnn(C)c2)c1=O the molecule record lists viability, T/C as 102

Short answer for O=C(C=Cc1cccc(S(=O)(=O)Nc2ccccc2)c1)NO + Cc1ccccc1N=Nc1ccc(NC(=O)c2ccnn2C)c(C)c1 : viability, T/C was 105

The measured viability, T/C associated with Nc1ccccc1NC(=O)c1ccc(CNC(=O)OCc2cccnc2)cc1 + Cc1ccccc1N=Nc1ccc(NC(=O)c2ccnn2C)c(C)c1 reads 83

Noted for CC(C)c1c(-c2ccccc2)nc2c(C#N)c[nH]n2c1=O + Cc1ccccc1N=Nc1ccc(NC(=O)c2ccnn2C)c(C)c1 : its viability, T/C reads 101

// viability, T/C lookup, molecule = CC1COCCN1c1cc(C2(S(C)(=N)=O)CC2)nc(-c2ccnc3[nH]ccc23)n1 (stereo not drawn) + CC(CO)NC(=O)c1cc(-c2ccc(Cl)cc2)nn(-c2cnn(C)c2)c1=O , result: 97.6

Record summary for CC1(C)CCC(CN2CCN(c3ccc(C(=O)NS(=O)(=O)c4ccc(NCC5CCOCC5)c([N+](=O)[O-])c4)c(Oc4cnc5[nH]ccc5c4)c3)CC2)=C(c2ccc(Cl)cc2)C1 + CC(CO)NC(=O)c1cc(-c2ccc(Cl)cc2)nn(-c2cnn(C)c2)c1=O : reported viability, T/C = 101

viability, T/C in this record for COc1cc(C2c3cc4c(cc3C(OC3OC5COC(C)OC5C(O)C3O)C3COC(=O)C23)OCO4)cc(OC)c1O (stereo not drawn) + Cc1cncc(-c2nc(NCCc3c[nH]c4ccccc34)c3ncn(C(C)C)c3n2)c1 : 94.7

viability, T/C reported for this molecule O=C(c1cc(Cc2n[nH]c(=O)c3ccccc23)ccc1F)N1CCN(C(=O)C2CC2)CC1 + Cc1ccccc1N=Nc1ccc(NC(=O)c2ccnn2C)c(C)c1 : 101

Attribution: PubChem BioAssay AID1919000
